study system: Sodium-dependent serotonin transporter (Rattus norvegicus)
Sequence (P31652 whole entry): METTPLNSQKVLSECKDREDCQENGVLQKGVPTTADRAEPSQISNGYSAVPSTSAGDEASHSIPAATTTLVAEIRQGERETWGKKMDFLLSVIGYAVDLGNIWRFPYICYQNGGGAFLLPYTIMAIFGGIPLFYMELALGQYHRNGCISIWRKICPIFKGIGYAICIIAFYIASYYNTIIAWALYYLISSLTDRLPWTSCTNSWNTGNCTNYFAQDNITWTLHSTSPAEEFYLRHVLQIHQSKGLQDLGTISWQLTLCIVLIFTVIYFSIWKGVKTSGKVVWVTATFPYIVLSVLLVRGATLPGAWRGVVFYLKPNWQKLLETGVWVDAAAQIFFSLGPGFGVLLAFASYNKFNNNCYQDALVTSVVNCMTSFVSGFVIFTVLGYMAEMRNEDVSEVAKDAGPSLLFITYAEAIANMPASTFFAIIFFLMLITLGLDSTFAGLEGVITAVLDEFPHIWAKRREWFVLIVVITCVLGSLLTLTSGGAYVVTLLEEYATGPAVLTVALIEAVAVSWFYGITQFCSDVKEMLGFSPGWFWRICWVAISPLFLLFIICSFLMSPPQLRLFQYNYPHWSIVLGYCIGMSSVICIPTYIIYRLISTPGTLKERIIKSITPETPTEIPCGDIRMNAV
pKi: −log10 of the molar value.
Use class 1 when the recorded pKi is no lower than 5; use class 0 when it is lower.

[Q] Please check the record CC(O)CN1CCN(C(=O)C[S+]([O-])C(c2ccc(F)cc2)c2ccc(F)cc2)CC1 (stereo unspecified) and state if its pKi is at or above 5.
[A] class 0

[Q] Please check the record `Fc1ccc(C(SCCN2CCN(Cc3ccc(Cl)cc3)CC2)c2ccc(F)cc2)cc1` and state if its pKi is at or above 5.
[A] class 1

[Q] Please check the record [O-][S+](CCN1CCN(Cc2ccc(C(F)(F)F)cc2)CC1)C(c1ccc(F)cc1)c1ccc(F)cc1 (stereo unspecified) and state if its pKi is at or above 5.
[A] class 1

[Q] Please check the record [O-][S+](CCN1CCN(Cc2ccc(Cl)cc2)CC1)C(c1ccc(F)cc1)c1ccc(F)cc1 (stereo unspecified) and state if its pKi is at or above 5.
[A] class 1

[Q] Please check the record `O=C(CSC(c1ccc(F)cc1)c1ccc(F)cc1)N1CCN(Cc2ccc(Cl)cc2)CC1` and state if its pKi is at or above 5.
[A] class 1

[Q] Please check the record `O=C(CSC(c1ccc(F)cc1)c1ccc(F)cc1)N1CCN(Cc2ccc(F)cc2)CC1` and state if its pKi is at or above 5.
[A] class 1

###

study system: Sodium-dependent dopamine transporter (Rattus norvegicus, UniProt P23977)
Sequence (P23977 whole entry): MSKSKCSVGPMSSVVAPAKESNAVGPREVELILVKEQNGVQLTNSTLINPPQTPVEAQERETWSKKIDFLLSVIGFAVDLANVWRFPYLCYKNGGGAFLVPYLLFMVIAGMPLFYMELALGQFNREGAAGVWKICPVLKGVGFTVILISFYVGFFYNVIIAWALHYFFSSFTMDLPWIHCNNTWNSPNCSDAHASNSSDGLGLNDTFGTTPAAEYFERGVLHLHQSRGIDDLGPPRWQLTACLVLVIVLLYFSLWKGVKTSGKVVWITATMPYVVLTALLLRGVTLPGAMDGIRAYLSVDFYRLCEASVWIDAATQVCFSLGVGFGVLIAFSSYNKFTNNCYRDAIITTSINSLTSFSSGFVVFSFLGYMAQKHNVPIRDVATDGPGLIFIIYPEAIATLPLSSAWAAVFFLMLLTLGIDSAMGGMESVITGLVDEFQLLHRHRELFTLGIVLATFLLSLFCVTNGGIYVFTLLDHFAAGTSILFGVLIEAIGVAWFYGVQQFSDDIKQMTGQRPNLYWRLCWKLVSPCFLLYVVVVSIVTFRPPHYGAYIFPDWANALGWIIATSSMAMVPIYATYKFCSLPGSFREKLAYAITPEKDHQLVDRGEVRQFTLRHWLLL
Catalogue of Ki values
Expressed in nM, but write only the number.

compound: [O-][S+](CCN1CCN(Cc2ccccc2)CC1)C(c1ccc(F)cc1)c1ccc(F)cc1 (centres undefined)
value unit: nM
Ki: 27.2

compound: CC(O)CN1CCN(CCSC(c2cccc(Cl)c2)c2cccc(Cl)c2)CC1 (centres undefined)
value unit: nM
Ki: 143

compound: O=C(CSC(c1ccc(F)cc1)c1ccc(F)cc1)N1CCN(Cc2ccc(F)cc2)CC1
value unit: nM
Ki: 53.7

[Q] # Ki lookup, item CCCN1CCN(C(=O)C[S+]([O-])C(c2ccc(F)cc2)c2ccc(F)cc2)CC1 (centres undefined)
[A] 279

###

assay overview: Stability in mouse liver microsomes assessed as compound remaining at 10 uM in presence of NADPH regenerating system measured up to 70 mins by LC/MS/MS method
Type: ADME
applied conditions: read-out: Stability
Catalogue of remaining at 70 min, 10 µM values

compound: CC(O)CN1CCN(CC[S+]([O-])C(c2ccc(F)cc2)c2ccc(F)cc2)CC1 (configuration not stated)
remaining at 70 min, 10 µM: 50%

Please look at the following compound next.
[Q] # remaining at 70 min, 10 µM lookup, item CC(O)CN1CCN(CCSC(c2ccc(F)cc2)c2ccc(F)cc2)CC1 (configuration not stated)
[A] 50%

###

study system: Sigma non-opioid intracellular receptor 1 (Cavia porcellus)
Sequence (Q60492 whole entry): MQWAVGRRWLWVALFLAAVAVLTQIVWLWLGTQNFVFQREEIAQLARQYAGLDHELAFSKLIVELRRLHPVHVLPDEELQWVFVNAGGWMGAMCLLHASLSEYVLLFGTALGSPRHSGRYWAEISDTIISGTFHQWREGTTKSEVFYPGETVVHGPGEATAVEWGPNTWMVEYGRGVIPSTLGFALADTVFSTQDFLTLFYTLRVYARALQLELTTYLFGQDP
assay overview: Displacement of [3H](+)-pentazocine from sigma1 receptor in whole-guinea pig brain minus cerebellum homogenates incubated for 120 mins by radioligand binding assay
experimental readout: Ki (nM)
Expressed in nM, but write only the number.

compound: Fc1ccc(C(SCCNCCCc2ccccc2)c2ccc(F)cc2)cc1
value: 159

Please look at the following compound next.
[Q] # Ki lookup, item CCCCN1C2CCC1CC(OC(c1ccc(F)cc1)c1ccc(F)cc1)C2 (stereo not drawn)
[A] 2.4

###

assay overview: Stability in mouse liver microsomes assessed as half life at 10 uM in presence of NADPH regenerating system by LC/MS/MS method
Format: ADME
applied conditions: liver microsomes
experimental readout: half-life at 10 µM (h)
Expressed in h, but write only the number.

compound: CC(O)CN1CCN(CCSC(c2ccc(F)cc2)c2ccc(F)cc2)CC1 (configuration not stated)
value unit: h
half-life at 10 µM: 1

Please look at the following compound next.
[Q] # half-life at 10 µM lookup, item CC(O)CN1CCN(CC[S+]([O-])C(c2ccc(F)cc2)c2ccc(F)cc2)CC1 (configuration not stated)
[A] 1

###

study system: Sodium-dependent serotonin transporter (Rattus norvegicus)
Catalogue of pKi values
Friendly reminder that pKi comes from taking -log10 of the concentration in mol/L.

Example molecules with recorded pKi:
molecule: O=C(C[S+]([O-])C(c1ccc(F)cc1)c1ccc(F)cc1)N1CCN(Cc2ccc(F)cc2)CC1 (stereo not given)
pKi: 4.63

molecule: CCCN1CCN(C(=O)CSC(c2ccc(F)cc2)c2ccc(F)cc2)CC1
pKi: 5.22

molecule: O=C(C[S+]([O-])C(c1ccc(F)cc1)c1ccc(F)cc1)N1CCN(Cc2ccc(Cl)cc2)CC1 (stereo not given)
pKi: 5.02

molecule: CC(O)CN1CCN(C(=O)CSC(c2ccc(F)cc2)c2ccc(F)cc2)CC1 (stereo not given)
pKi: 4.94

Please look at the following molecule next.
[Q] Query pKi on Sodium-dependent serotonin transporter (Rattus norvegicus) for CC(O)CN1CCN(CC[S+]([O-])C(c2cccc(Cl)c2)c2cccc(Cl)c2)CC1 (stereo not given)
[A] 4.23

###

Target or system D(2) dopamine receptor (Homo sapiens); recorded quantity pKi.
Friendly reminder that pKi comes from taking -log10 of the concentration in mol/L.

Example molecules with recorded pKi:
molecule: CC(O)CN1CCN(CCSC(c2ccc(F)cc2)c2ccc(F)cc2)CC1 (configuration not stated)
study system: D(2) dopamine receptor (Homo sapiens)
Sequence (P14416 whole entry): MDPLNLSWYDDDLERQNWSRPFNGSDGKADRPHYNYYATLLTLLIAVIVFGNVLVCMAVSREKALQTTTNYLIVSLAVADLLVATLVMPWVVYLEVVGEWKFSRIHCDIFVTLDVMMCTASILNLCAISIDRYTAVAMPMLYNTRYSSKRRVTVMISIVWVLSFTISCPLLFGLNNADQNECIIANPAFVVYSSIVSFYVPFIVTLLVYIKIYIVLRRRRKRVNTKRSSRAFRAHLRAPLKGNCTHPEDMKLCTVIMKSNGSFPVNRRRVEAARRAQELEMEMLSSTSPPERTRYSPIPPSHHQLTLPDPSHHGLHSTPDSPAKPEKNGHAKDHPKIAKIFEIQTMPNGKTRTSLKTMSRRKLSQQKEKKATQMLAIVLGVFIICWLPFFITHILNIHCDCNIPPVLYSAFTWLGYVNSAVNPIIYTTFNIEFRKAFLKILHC
experimental readout: pKi
value: 6.16

molecule: CC(O)CN1CCN(CC[S+]([O-])C(c2ccc(F)cc2)c2ccc(F)cc2)CC1 (configuration not stated)
study system: D(2) dopamine receptor (Homo sapiens)
experimental readout: pKi
value: 6.53

molecule: CCCCN1C2CCC1CC(OC(c1ccc(F)cc1)c1ccc(F)cc1)C2 (configuration not stated)
study system: D(2) dopamine receptor (Homo sapiens)
experimental readout: pKi
value: 7.17

[Q] # pKi lookup, item `Fc1ccc(C(SCCNCCCc2ccccc2)c2ccc(F)cc2)cc1`
[A] 6.64

[Q] # pKi lookup, item [O-][S+](CCN1CCN(CC(O)Cc2ccccc2)CC1)C(c1ccc(F)cc1)c1ccc(F)cc1 (configuration not stated)
[A] 7.10

[Q] # pKi lookup, item CCc1cc(Cl)c(OC)c(C(=O)NC[C@@H]2CCCN2CC)c1O [ETICLOPRIDE]
[A] 9.59

###

Target or system D(3) dopamine receptor (Homo sapiens); recorded quantity Ki.
Expressed in nM, but write only the number.

Example molecules with recorded Ki:
molecule: CCCCN1C2CCC1CC(OC(c1ccc(F)cc1)c1ccc(F)cc1)C2 (stereo unspecified)
value: 34.4

molecule: CC(O)CN1CCN(CCSC(c2ccc(F)cc2)c2ccc(F)cc2)CC1 (stereo unspecified)
value: 424

molecule: Fc1ccc(C(SCCNCCCc2ccccc2)c2ccc(F)cc2)cc1
value: 65.9

molecule: NC(=O)C[S@@+]([O-])C(c1ccccc1)c1ccccc1
value: 39000

molecule: [O-][S+](CCN1CCN(CC(O)Cc2ccccc2)CC1)C(c1ccc(F)cc1)c1ccc(F)cc1 (stereo unspecified)
value: 652

Please look at the following molecule next.
[Q] # Ki lookup, item CC(O)CN1CCN(CC[S+]([O-])C(c2ccc(F)cc2)c2ccc(F)cc2)CC1 (stereo unspecified)
[A] 480

###

Species: Rattus norvegicus
assay overview: Selectivity index, ratio of Ki for NET in Sprague-Dawley rat frontal cortex membranes to Ki for DAT in Sprague-Dawley rat brain membranes
Format: cell membranes
experimental readout: Ratio Ki

Example compounds with recorded Ratio Ki:
compound: O=C(C[S+]([O-])C(c1ccc(F)cc1)c1ccc(F)cc1)N1CCN(Cc2ccc(F)cc2)CC1 (centres undefined)
experimental readout: Ratio Ki
value: > 100
//
compound: Fc1ccc(CN2CCN(CCSC(c3ccc(F)cc3)c3ccc(F)cc3)CC2)cc1
experimental readout: Ratio Ki
value: > 100
//
compound: [O-][S+](CCN1CCN(Cc2ccc(Cl)cc2)CC1)C(c1ccc(F)cc1)c1ccc(F)cc1 (centres undefined)
experimental readout: Ratio Ki
value: > 100
//
compound: [O-][S+](CCN1CCN(CCCc2ccccc2)CC1)C(c1ccccc1)c1ccccc1 (centres undefined)
experimental readout: Ratio Ki
value: > 100

[Q] # Ratio Ki lookup, item CC(O)CN1CCN(C(=O)C[S+]([O-])C(c2cccc(Cl)c2)c2cccc(Cl)c2)CC1 (centres undefined)
[A] > 100

###

study system: Sodium-dependent dopamine transporter (Rattus norvegicus)
pKi: −log10 of the molar value.
Use class 1 when the recorded pKi is no lower than 7; use class 0 when it is lower.

Field: example entries. Status: answers known.
molecule: [O-][S+](CCN1CCN(Cc2ccc(C(F)(F)F)cc2)CC1)C(c1ccc(F)cc1)c1ccc(F)cc1 (centres undefined)
discrete label: class 1

molecule: [O-][S+](CCN1CCN(Cc2ccc(Cl)cc2)CC1)C(c1ccc(F)cc1)c1ccc(F)cc1 (centres undefined)
discrete label: class 1

molecule: CCCCN1C2CCC1CC(OC(c1ccc(F)cc1)c1ccc(F)cc1)C2 (centres undefined)
discrete label: class 1

molecule: CC(O)CN1CCN(CC[S+]([O-])C(c2cccc(Cl)c2)c2cccc(Cl)c2)CC1 (centres undefined)
discrete label: class 0

molecule: O=C(CSC(c1ccc(F)cc1)c1ccc(F)cc1)N1CCN(CCCc2ccccc2)CC1
discrete label: class 1

molecule: O=C(CSC(c1ccc(F)cc1)c1ccc(F)cc1)N1CCN(Cc2ccc(Cl)cc2)CC1
discrete label: class 1

Next molecule, please.
[Q] Please check the record `Fc1ccc(CN2CCN(CCSC(c3ccc(F)cc3)c3ccc(F)cc3)CC2)cc1` and state if its pKi is at or above 7.
[A] class 1
